test system: MDA-MB-231 breast; experiment: NCI-60 one-dose screen, 48 h (100 = growth as untreated, 0 = no growth, -100 = all killed); details: 10 µM unless noted
The panel holds about 83,000 compounds, 20% with a hit somewhere; the sample as a whole holds those more often.
For each of the compounds below, state its growth.
I only need the number, in %, no unit after it.

*Q* Can you share its growth? I mean this compound: Cc1nc2c(c(=O)[nH]1)C(c1ccccc1)c1ccc3ccccc3c1O2 (stereo not given)
*A* 46.6

*Q* Can you share its growth? I mean this compound: CSc1nc(C)c([N+](=O)[O-])c(N)n1
*A* 96.5

*Q* Can you share its growth? I mean this compound: CCCn1nc(C(=O)N(C)Cc2ccccc2)c2c1CCC(N1CCc3ccccc31)C2 (stereo not given)
*A* 108

*Q* Can you share its growth? I mean this compound: C=C(C)[C@@H]1CC[C@]2(C(N)=O)CC[C@]3(C)[C@H](CC[C@@H]4[C@@]5(C)CC[C@H](OCCC#N)C(C)(C)[C@@H]5CC[C@]43C)[C@@H]12
*A* 73.2

*Q* Can you share its growth? I mean this compound: O=C(O)/C=C/C(=O)Nc1cccc(Cn2nnc3cc(Cl)c(Cl)cc32)c1
*A* 106

*Q* Can you share its growth? I mean this compound: CCn1c(-c2cc3c([nH]c4ccccc43)c(-c3cccc(O)c3)n2)n[nH]c1=S
*A* 46.9

*Q* Can you share its growth? I mean this compound: N#CSc1c[nH]c2cccc(/C=C/C(=O)/C=C(O)/C=C/c3cccc4[nH]cc(SC#N)c34)c12
*A* -78.3

*Q* Can you share its growth? I mean this compound: Cc1c(CN)cc(-c2ccc(Cl)cc2)n1-c1ccccc1
*A* 87.1

*Q* Can you share its growth? I mean this compound: Fc1ccc(Cn2cc(CSc3nc4ccccc4o3)nn2)cc1
*A* 97.1

*Q* Can you share its growth? I mean this compound: COc1cc2c(c(OC)c1OC)C(=O)CC(c1cccc(NC(=O)c3ccc(C#N)cc3)c1)O2 (stereo not given)
*A* 79.9
